# key: entry, value: abundance fitness
B1: Arginine-glutamic acid dipeptide repeats protein, residues 502 to 543; numbered along this chain, Q9P2R6 (parent)
chain: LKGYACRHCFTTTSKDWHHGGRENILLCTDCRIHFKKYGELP

- Variants of: B1
- experimentalDetails: abundance fitness (aPCA) (normalised: wild type 0, dead -1); higher = more abundant; growth selection in yeast, the domain comes from the species named
- conditionSummary: Homo sapiens
Respond with the number and no other words.

| mutationCode | abundance fitness |
| --- | --- |
| I33R | 0.026 |

Item `A5P` has what recorded abundance fitness?
-0.335

And `R32Q` ?
-0.035

What would you report for `G20C` ?
-0.091

What do you get for `L41M` ?
-0.126

Would you kindly repeat that for `K15R` ?
-0.053

Can you handle `I33Y` next?
-0.01

Try `R32H` next.
-0.037

Then this variant: `T12S`
-0.205

Follow-up item: `G3V`
-0.218

Okay, and `K2E` ?
-0.038

Query `L26V` next
-0.18

What do you have for `G3H` ?
-0.058

Likewise for `L41P` ?
-0.253

Also `E40N` , if possible.
-0.116

Then this variant: `K15W`
-0.489

Now the same for `E23T`
-0.104
